Reference source: BindingDB's records for doi:10.1016/j.bmcl.2003.08.064

Target desc: Tyrosine-protein phosphatase non-receptor type 2 (Homo sapiens)
Sequence (P17706 whole entry): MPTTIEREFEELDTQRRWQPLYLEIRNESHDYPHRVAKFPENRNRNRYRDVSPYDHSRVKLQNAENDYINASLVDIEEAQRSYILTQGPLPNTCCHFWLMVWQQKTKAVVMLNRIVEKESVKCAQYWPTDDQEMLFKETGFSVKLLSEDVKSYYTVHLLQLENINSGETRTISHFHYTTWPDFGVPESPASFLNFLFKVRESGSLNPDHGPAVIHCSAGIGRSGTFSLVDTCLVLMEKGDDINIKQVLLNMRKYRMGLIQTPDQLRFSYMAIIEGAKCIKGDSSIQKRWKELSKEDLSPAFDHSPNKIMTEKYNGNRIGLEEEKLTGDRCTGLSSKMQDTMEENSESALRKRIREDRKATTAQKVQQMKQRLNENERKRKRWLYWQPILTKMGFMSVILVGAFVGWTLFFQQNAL
Recorded endpoint: Ki (µM)
Express the result in µM but write the number alone.

Please tell me: Ki of CCc1cc(CC(NC(C)=O)C(=O)NCCCCOc2cccc(O)c2C(=O)OC)ccc1N(C(=O)C(=O)O)c1ccccc1C(=O)O (stereo unspecified) , system Tyrosine-protein phosphatase non-receptor type 2 (Homo sapiens)?
65
